TEST_SYSTEM: Aldo-keto reductase family 1 member B10 [K125R,V301L] (Homo sapiens, UniProt O60218, K125R/V301L)
Sequence (O60218 whole entry K125R/V301L): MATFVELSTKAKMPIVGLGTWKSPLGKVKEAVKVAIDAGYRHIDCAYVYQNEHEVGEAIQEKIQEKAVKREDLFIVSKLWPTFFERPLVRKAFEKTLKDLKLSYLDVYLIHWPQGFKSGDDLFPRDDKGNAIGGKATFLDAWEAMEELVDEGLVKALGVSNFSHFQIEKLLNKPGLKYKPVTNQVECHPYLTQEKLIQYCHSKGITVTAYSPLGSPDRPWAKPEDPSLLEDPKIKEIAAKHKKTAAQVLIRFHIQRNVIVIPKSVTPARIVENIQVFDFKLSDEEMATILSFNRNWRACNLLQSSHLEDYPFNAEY
ASSAY_OVERVIEW: IC50-Activity Assay (AR)
CONDITIONS: pH 7
pIC50: −log10 of the molar value.

[
  {
    "GIVEN_SMILES": "O=C(O)COc1cc(Cl)ccc1C(=O)NCc1c(F)c(F)c(Br)c(F)c1F",
    "pIC50": 5.15
  },
  {
    "GIVEN_SMILES": "COc1c(Br)c(Br)c(Br)c(Br)c1Cn1c(=O)ccn(CC(=O)O)c1=O",
    "pIC50": 6.35
  },
  {
    "GIVEN_SMILES": "CC1=C(CC(=O)O)c2cc(F)ccc2/C1=C\\c1ccc([S@@+](C)[O-])cc1",
    "pIC50": 5.57
  },
  {
    "GIVEN_SMILES": "O=C(O)COc1cc(Cl)ccc1C(=O)NCc1c(Br)cc(Br)cc1Br",
    "pIC50": 6.00
  },
  {
    "GIVEN_SMILES": "O=C(O)COc1cc(Cl)ccc1C(=O)NCc1ccc(Br)cc1F",
    "pIC50": 5.36
  },
  {
    "GIVEN_SMILES": "O=C(O)COc1cc(Cl)ccc1C(=O)NCc1ccc(Br)cc1",
    "pIC50": 5.35
  },
  {
    "GIVEN_SMILES": "O=C(O)COc1cc(Cl)ccc1C(=O)NCc1c(Br)c(Br)c(Br)c(Br)c1Br",
    "pIC50": 7.10
  }
]

###

Test system Aldo-keto reductase family 1 member B1 (Homo sapiens, UniProt P15121), IC50 listed for each of the molecules.
PROPERTY_LABEL: IC50

[
  {
    "GIVEN_SMILES": "O=C(O)COc1cc(Cl)ccc1C(=O)NCc1c(Br)cc(Br)cc1Br",
    "TEST_SYSTEM": "Aldo-keto reductase family 1 member B1 (Homo sapiens, UniProt P15121)",
    "PROPERTY_LABEL": "IC50",
    "RESULT_VALUE": "21.4 µM"
  },
  {
    "GIVEN_SMILES": "O=C(O)COc1cc(Cl)ccc1C(=O)NCc1c(Br)c(Br)c(Br)c(Br)c1Br",
    "TEST_SYSTEM": "Aldo-keto reductase family 1 member B1 (Homo sapiens, UniProt P15121)",
    "PROPERTY_LABEL": "IC50",
    "RESULT_VALUE": "21.7 µM"
  },
  {
    "GIVEN_SMILES": "O=C(O)COc1cc(F)ccc1C(=S)NCc1ccc(Br)cc1F",
    "TEST_SYSTEM": "Aldo-keto reductase family 1 member B1 (Homo sapiens, UniProt P15121)",
    "PROPERTY_LABEL": "IC50",
    "RESULT_VALUE": "0.003 µM"
  }
]

###

TEST_SYSTEM: Aldo-keto reductase family 1 member B10 (Homo sapiens, UniProt O60218)
Sequence (O60218 whole entry): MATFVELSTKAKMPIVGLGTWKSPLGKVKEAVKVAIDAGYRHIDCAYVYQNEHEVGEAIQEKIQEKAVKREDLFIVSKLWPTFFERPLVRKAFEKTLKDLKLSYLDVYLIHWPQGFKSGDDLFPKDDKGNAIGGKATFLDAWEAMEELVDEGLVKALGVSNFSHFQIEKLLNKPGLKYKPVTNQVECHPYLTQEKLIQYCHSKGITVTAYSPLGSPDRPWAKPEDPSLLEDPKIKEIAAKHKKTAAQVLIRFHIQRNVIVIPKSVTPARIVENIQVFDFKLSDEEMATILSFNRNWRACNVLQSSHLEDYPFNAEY
ASSAY_OVERVIEW: IC50-Activity Assay (AKR1B10)
CONDITIONS: pH 7
pIC50: −log10 of the molar value.
pIC50 of 6 or higher: y. Under 6: n.

[
  {
    "GIVEN_SMILES": "O=C(O)COc1cc(Cl)ccc1C(=O)NCc1ccc(Br)cc1F",
    "GROUP_LABEL": "n"
  },
  {
    "GIVEN_SMILES": "O=C(O)COc1cc(Cl)ccc1C(=O)NCc1c(F)c(F)c(Br)c(F)c1F",
    "GROUP_LABEL": "n"
  },
  {
    "GIVEN_SMILES": "O=C(O)COc1cc(Cl)ccc1C(=O)NCc1c(Br)c(Br)c(Br)c(Br)c1Br",
    "GROUP_LABEL": "y"
  },
  {
    "GIVEN_SMILES": "O=C(O)COc1cc(Cl)ccc1C(=O)NCc1c(Br)cc(Br)cc1Br",
    "GROUP_LABEL": "y"
  },
  {
    "GIVEN_SMILES": "O=C(O)COc1cc(Cl)ccc1C(=O)NCc1ccc(Br)cc1",
    "GROUP_LABEL": "n"
  },
  {
    "GIVEN_SMILES": "COc1ccc2c(C(=S)N(C)CC(=O)O)cccc2c1C(F)(F)F",
    "GROUP_LABEL": "y"
  }
]

Value source: BindingDB's records for doi:10.1021/acschembio.6b00382
